Consider the following molecules and their measured inhibition of growth at 10 µM readings.
Tested on: HCT-116
Test: Cytotoxicity against human HCT116 cells at 10^-5 M after 72 hrs by MTS assay
Type: functional
Details: HCT-116, 72 h, read-out: GI
Express the result in % but write the number alone.

Use the examples below as a reference point.
{"compoundStructureString": "COc1cc(/C(=C2/O[C@@H]([C@H](O)CO)[C@H]3OC(C)(C)O[C@@H]23)c2cccc([N+](=O)[O-])c2)cc(OC)c1OC", "inhibition of growth at 10 µM (%)": 0}
{"compoundStructureString": "COc1cc(C(=C(COC(C)=O)COC(C)=O)c2ccc3ccccc3c2)cc(OC)c1OC", "inhibition of growth at 10 µM (%)": 20}
{"compoundStructureString": "COc1ccc(/C(=C2/O[C@@H]([C@H]3COC(C)(C)O3)[C@H]3OC(C)(C)O[C@@H]23)c2cc(OC)c(OC)c(OC)c2)cc1O", "inhibition of growth at 10 µM (%)": 39}
{"compoundStructureString": "COc1ccc(C(=C(COC(C)=O)COC(C)=O)c2cc(OC)c(OC)c(OC)c2)cc1O", "inhibition of growth at 10 µM (%)": 59}
{"compoundStructureString": "COc1cc(/C(=C2\\O[C@@H]([C@H]3COC(C)(C)O3)[C@H]3OC(C)(C)O[C@@H]23)c2cccc([N+](=O)[O-])c2)cc(OC)c1OC", "inhibition of growth at 10 µM (%)": 8}
{"compoundStructureString": "COc1cc(C(=C(COC(C)=O)COC(C)=O)c2cc(OC)c(OC)c(OC)c2)cc(OC)c1OC", "inhibition of growth at 10 µM (%)": 17}
{"compoundStructureString": "COc1cc(C(=C(CO)CO)c2ccc3ccccc3c2)cc(OC)c1OC", "inhibition of growth at 10 µM (%)": 68}
{"compoundStructureString": "COc1cc(C(=C(CO)CO)c2cc(OC)c(OC)c(OC)c2)cc(OC)c1OC", "inhibition of growth at 10 µM (%)": 0}

API: value(readout= inhibition of growth at 10 µM, system= HCT-116, query= `COc1cc(C(=C(COC(C)=O)COC(C)=O)c2ccc3c(c2)OCO3)cc(OC)c1OC` )
0

Query `COc1ccc(/C(=C2\O[C@@H]([C@H](O)CO)[C@H]3OC(C)(C)O[C@@H]23)c2cc(OC)c(OC)c(OC)c2)cc1O` next
58
